Data credit: patent US20170355757A1

Kd values by entry
- EXPERIMENTAL TARGET: T1, Human C5 (human, UniProt P01031 19-1676)
- T1 construct: The natural protein has a beta and an alpha chain; also called complement factor 5; complement component 5
- RUN DESCRIPTION: SPR, mAb captured by anti-hFc, 25C
READOUT TYPE: Kd (nM)

binder="H4H12159P (antibody, human IgG4, V domains shown) VH: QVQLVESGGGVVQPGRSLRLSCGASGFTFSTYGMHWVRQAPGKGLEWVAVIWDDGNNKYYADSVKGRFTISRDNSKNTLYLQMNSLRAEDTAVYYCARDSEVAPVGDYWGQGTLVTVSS VL: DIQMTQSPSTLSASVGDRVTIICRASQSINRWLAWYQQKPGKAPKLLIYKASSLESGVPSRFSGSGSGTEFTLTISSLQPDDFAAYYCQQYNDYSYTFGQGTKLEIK" readout_type=Kd units_text=nM quantitative_readout=0.0731
binder="H4H11683N (antibody, human IgG4, V domains shown, also called H2M11683N) VH: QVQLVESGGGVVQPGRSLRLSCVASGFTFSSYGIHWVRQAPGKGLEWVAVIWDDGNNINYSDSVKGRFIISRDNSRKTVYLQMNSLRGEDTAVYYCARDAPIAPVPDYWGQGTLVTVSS VL: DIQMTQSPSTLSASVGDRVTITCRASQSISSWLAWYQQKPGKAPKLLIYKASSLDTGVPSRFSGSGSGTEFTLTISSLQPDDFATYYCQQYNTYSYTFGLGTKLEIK" readout_type=Kd units_text=nM quantitative_readout=0.123
binder="H4H12168P (antibody, human IgG4, V domains shown) VH: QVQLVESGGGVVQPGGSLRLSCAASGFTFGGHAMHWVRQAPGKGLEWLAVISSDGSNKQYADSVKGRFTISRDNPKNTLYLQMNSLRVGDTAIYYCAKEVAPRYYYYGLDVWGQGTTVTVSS VL: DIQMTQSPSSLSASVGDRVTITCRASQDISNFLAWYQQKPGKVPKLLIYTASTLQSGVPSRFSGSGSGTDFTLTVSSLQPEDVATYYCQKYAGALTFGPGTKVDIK" readout_type=Kd units_text=nM quantitative_readout=0.112
